target: cannabinoid receptor 1 (CB1) (Homo sapiens, UniProt P21554); construct: human recombinant receptor expressed in Chem-1 cells; test: radioligand displacement binding assay
Sequence (P21554 whole entry): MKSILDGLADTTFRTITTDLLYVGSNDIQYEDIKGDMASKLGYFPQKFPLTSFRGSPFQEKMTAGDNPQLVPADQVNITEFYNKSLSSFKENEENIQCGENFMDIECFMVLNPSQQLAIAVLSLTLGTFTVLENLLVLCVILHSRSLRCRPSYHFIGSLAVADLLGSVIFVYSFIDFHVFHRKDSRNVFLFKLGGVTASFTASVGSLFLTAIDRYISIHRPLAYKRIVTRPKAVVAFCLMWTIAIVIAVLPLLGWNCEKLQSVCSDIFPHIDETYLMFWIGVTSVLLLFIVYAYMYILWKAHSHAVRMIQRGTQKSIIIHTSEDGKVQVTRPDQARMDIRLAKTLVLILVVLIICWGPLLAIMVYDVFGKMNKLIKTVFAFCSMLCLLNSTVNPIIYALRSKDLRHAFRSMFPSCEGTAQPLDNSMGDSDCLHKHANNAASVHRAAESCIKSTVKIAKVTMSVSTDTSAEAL
outcomeMeasure: pKi
Formally, pKi is defined as -log10 of the concentration c, with c in mol/L.

Q: Quick check: pKi of O=c1c(-c2ccc(O)cc2)coc2cc(O)cc(O)c12 [genistein] ?
Result: 6.85
